Target: Xanthine oxidase (XO) (Bos taurus, UniProt P80457)
Construct: purchased Sigma-Aldrich X4875
Sequence (P80457 whole entry): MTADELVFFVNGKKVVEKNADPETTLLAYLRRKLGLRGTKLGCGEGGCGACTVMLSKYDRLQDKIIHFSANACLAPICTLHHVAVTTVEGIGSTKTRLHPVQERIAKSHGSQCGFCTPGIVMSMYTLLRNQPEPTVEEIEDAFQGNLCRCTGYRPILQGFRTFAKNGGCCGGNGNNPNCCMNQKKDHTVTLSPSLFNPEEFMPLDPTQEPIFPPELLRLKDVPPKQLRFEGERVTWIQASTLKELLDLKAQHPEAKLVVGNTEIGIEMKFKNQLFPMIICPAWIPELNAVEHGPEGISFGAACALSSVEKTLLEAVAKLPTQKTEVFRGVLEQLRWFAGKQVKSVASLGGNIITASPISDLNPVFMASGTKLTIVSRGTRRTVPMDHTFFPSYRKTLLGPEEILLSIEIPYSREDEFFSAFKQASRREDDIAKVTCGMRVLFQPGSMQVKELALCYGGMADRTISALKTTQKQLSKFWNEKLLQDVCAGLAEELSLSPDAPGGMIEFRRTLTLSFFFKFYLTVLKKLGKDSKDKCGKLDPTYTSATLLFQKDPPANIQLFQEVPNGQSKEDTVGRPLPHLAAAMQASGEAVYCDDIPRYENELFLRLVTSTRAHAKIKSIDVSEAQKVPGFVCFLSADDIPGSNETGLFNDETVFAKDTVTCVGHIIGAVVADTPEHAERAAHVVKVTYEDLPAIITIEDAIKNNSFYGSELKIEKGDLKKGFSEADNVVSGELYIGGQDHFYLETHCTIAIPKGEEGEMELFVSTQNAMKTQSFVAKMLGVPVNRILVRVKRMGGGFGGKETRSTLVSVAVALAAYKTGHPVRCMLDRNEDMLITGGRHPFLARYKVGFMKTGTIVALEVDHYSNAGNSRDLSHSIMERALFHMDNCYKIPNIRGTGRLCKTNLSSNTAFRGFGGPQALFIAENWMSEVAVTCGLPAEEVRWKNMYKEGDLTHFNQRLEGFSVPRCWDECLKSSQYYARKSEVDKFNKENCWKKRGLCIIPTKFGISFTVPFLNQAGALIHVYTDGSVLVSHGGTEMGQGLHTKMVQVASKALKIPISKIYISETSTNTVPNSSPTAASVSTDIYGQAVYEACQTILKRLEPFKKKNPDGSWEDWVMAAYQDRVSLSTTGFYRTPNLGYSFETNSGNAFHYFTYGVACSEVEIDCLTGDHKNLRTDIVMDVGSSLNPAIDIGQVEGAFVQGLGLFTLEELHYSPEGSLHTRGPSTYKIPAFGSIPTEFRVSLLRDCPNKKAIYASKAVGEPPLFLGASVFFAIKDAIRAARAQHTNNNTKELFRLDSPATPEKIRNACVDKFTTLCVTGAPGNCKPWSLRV
Assay: XO inhibitory assay (spectrophotometric quantification of uric acid formation at 295 nm)
Assay type: biochemical
Details: read-out: XO inhibition (%)
Method: XO inhibitory and antioxidant assays were performed in triplicate while antiproliferative assay was conducted in quadruplicate. For each assay, at least two independent experiments were performed. […] The XO inhibitory activity was evaluated by spectrophotometric quantification of uric acid formation. […] The absorbance was recorded at a wavelength of 295 nm every minute for 10 min. […] All in vitro results are expressed as mean values ± standard deviation (SD) of at least two independent determinations. […]
Kind request: treat 90% as inclusive, so inhibition at 30 µM at 90% or higher is satisfied, anything lower is not satisfied.

Consider the following illustrative entries.
>>> print(df.to_string())
                                   molecule  assigned_class
0  CCn1c(O)c(C(C(C)=Cc2ccccc2)c2c(O)n(CC)c(=S)n(CC)c2=O)c(=O)n(CC)c1=S       satisfied
1  CCn1c(O)c(C(c2ccc(C)cc2)c2c(O)n(CC)c(=S)n(CC)c2=O)c(=O)n(CC)c1=S   not satisfied
2  CCn1c(O)c(C(c2ccccc2)c2c(O)n(CC)c(=S)n(CC)c2=O)c(=O)n(CC)c1=S   not satisfied
3  CCn1c(O)c(C(c2ccc([N+](=O)[O-])cc2[N+](=O)[O-])c2c(O)n(CC)c(=S)n(CC)c2=O)c(=O)n(CC)c1=S   not satisfied
4  CCn1c(O)c(C(c2cc(O)ccc2[N+](=O)[O-])c2c(O)n(CC)c(=S)n(CC)c2=O)c(=O)n(CC)c1=S   not satisfied
5  CCn1c(O)c(C(c2ccc(Br)cc2)c2c(O)n(CC)c(=S)n(CC)c2=O)c(=O)n(CC)c1=S       satisfied
6  Cc1nc(-c2ccc(OCC(C)C)c(C#N)c2)sc1C(=O)O [Febuxostat, febuxostat, reference compound]       satisfied

// switching to the query molecule
Quick check: does CCn1c(O)c(C(c2ccc(C#N)cc2)c2c(O)n(CC)c(=S)n(CC)c2=O)c(=O)n(CC)c1=S have inhibition at 30 µM greater than or equal to 90%?
not satisfied

====

assay: Cytotoxicity/antiproliferative assay (MTT) on Caco-2; format: cell-based; conditions: human, read-out: Cytotoxicity (% cell viability at 30 µM) Caco-2
Doc: threshold 90% (exclusive). Items with viability at 72 h, 30 µM beneath it return True; others return False.

The examples below pair each entry with its known result.
>>> print(df.to_string())
                                   compound  assigned_class
0  CCn1c(O)c(C(c2ccc(C)cc2)c2c(O)n(CC)c(=S)n(CC)c2=O)c(=O)n(CC)c1=S           False
1  CCn1c(O)c(C(c2ccc([N+](=O)[O-])cc2)c2c(O)n(CC)c(=S)n(CC)c2=O)c(=O)n(CC)c1=S           False
2  O=c1[nH]c(=S)[nH]c(O)c1C(c1ccc([N+](=O)[O-])cc1)c1c(O)[nH]c(=S)[nH]c1=O           False
3  CCn1c(O)c(C(c2ccc(Br)cc2)c2c(O)n(CC)c(=S)n(CC)c2=O)c(=O)n(CC)c1=S            True

# TODO verify viability at 72 h, 30 µM < 90% strictly for this compound: CCn1c(O)c(C(c2ccc(C#N)cc2)c2c(O)n(CC)c(=S)n(CC)c2=O)c(=O)n(CC)c1=S
True

Check if viability at 72 h, 30 µM falls below 90% for CCn1c(O)c(C(c2ccccc2[N+](=O)[O-])c2c(O)n(CC)c(=S)n(CC)c2=O)c(=O)n(CC)c1=S .
False

Field: below-cutoff. Rule: recorded viability at 72 h, 30 µM strictly less than 90%. Subject: CCn1c(O)c(C(c2ccc([N+](=O)[O-])cc2[N+](=O)[O-])c2c(O)n(CC)c(=S)n(CC)c2=O)c(=O)n(CC)c1=S
False

Quick check: does CCn1c(O)c(C(C(C)=Cc2ccccc2)c2c(O)n(CC)c(=S)n(CC)c2=O)c(=O)n(CC)c1=S have viability at 72 h, 30 µM under 90%?
False

Answer whether the compound CCn1c(O)c(C(c2cc(O)ccc2[N+](=O)[O-])c2c(O)n(CC)c(=S)n(CC)c2=O)c(=O)n(CC)c1=S has viability at 72 h, 30 µM strictly less than 90%
False

Given the entry CCn1c(O)c(C(c2ccc(N(C)C)cc2[N+](=O)[O-])c2c(O)n(CC)c(=S)n(CC)c2=O)c(=O)n(CC)c1=S , would its reported viability at 72 h, 30 µM be below 90%?
False

Given the entry CCn1c(O)c(C(c2ccc(NC(C)=O)cc2)c2c(O)n(CC)c(=S)n(CC)c2=O)c(=O)n(CC)c1=S , would its reported viability at 72 h, 30 µM be below 90%?
True

# TODO verify viability at 72 h, 30 µM < 90% strictly for this compound: CCn1c(O)c(C(c2ccc(OC)cc2)c2c(O)n(CC)c(=S)n(CC)c2=O)c(=O)n(CC)c1=S
True

Record O=c1[nH]cc(F)c(=O)[nH]1 [Compound 5-FU, 5-fluorouracil, reference compound] : is its viability at 72 h, 30 µM strictly below 90%?
True

Below 90% on viability at 72 h, 30 µM? Entry CCn1c(O)c(C(c2cccnc2)c2c(O)n(CC)c(=S)n(CC)c2=O)c(=O)n(CC)c1=S
True
